Substrate: O=[N+]([O-])c1ccc(Cl)c2nonc12
Experiment: purified protein
Type: biochemical, Oryza sativa
Details: 1.0 mM GSH fixed, NBD-Cl 0.1-1.0 mM, 25 °C, apparent Km, Km above tested range
Field: Km. Provide a value for each of the proteins that follow.

Example results:
- protein: "OsGSTU17 (Oryza sativa Japonica Group; W161A) (protein, about 25 kDa subunit; dimeric enzyme; mutants L112A and W165A expressed at 20 °C) MAADKGVKVFGMWASPMAIRVEWALRLKGVDYEYVDEDLANKSEALLRHNPVTKKVPVLVHDGKPLAESTVIVEYIDEAWKHGYPIMPSDPFDRAQARFWARFAEEKCNAALYPIFMTTGEEQRKLVHEAQQCLKTLETALEGKKFFGGDAFGYLDIVTGAFAYWLPVIEEACGVEVVTDEALPLMKAWFDRVLAVDAVKAVLPPRDKLVALNKARREQILSA"
  experimental result: "1117 ± 22 µM"
- protein: "OsGSTU17 (Oryza sativa Japonica Group; M17A) (protein, about 25 kDa subunit; dimeric enzyme; mutants L112A and W165A expressed at 20 °C) MAADKGVKVFGMWASPAAIRVEWALRLKGVDYEYVDEDLANKSEALLRHNPVTKKVPVLVHDGKPLAESTVIVEYIDEAWKHGYPIMPSDPFDRAQARFWARFAEEKCNAALYPIFMTTGEEQRKLVHEAQQCLKTLETALEGKKFFGGDAFGYLDIVTGWFAYWLPVIEEACGVEVVTDEALPLMKAWFDRVLAVDAVKAVLPPRDKLVALNKARREQILSA"
  experimental result: "3661 ± 843 µM"

In: State the recorded Km for this entry: OsGSTU17 (Oryza sativa Japonica Group; L112A) (protein, about 25 kDa subunit; dimeric enzyme; mutants L112A and W165A expressed at 20 °C) MAADKGVKVFGMWASPMAIRVEWALRLKGVDYEYVDEDLANKSEALLRHNPVTKKVPVLVHDGKPLAESTVIVEYIDEAWKHGYPIMPSDPFDRAQARFWARFAEEKCNAAAYPIFMTTGEEQRKLVHEAQQCLKTLETALEGKKFFGGDAFGYLDIVTGWFAYWLPVIEEACGVEVVTDEALPLMKAWFDRVLAVDAVKAVLPPRDKLVALNKARREQILSA
Out: 1487 ± 79 µM
